Numbers sourced from patent US20240254119A1.

- System Tested: wtKIT (Homo sapiens, UniProt P10721)
- Construct: 1888289AM in the reaction mixtures
- Sequence (P10721 26-976): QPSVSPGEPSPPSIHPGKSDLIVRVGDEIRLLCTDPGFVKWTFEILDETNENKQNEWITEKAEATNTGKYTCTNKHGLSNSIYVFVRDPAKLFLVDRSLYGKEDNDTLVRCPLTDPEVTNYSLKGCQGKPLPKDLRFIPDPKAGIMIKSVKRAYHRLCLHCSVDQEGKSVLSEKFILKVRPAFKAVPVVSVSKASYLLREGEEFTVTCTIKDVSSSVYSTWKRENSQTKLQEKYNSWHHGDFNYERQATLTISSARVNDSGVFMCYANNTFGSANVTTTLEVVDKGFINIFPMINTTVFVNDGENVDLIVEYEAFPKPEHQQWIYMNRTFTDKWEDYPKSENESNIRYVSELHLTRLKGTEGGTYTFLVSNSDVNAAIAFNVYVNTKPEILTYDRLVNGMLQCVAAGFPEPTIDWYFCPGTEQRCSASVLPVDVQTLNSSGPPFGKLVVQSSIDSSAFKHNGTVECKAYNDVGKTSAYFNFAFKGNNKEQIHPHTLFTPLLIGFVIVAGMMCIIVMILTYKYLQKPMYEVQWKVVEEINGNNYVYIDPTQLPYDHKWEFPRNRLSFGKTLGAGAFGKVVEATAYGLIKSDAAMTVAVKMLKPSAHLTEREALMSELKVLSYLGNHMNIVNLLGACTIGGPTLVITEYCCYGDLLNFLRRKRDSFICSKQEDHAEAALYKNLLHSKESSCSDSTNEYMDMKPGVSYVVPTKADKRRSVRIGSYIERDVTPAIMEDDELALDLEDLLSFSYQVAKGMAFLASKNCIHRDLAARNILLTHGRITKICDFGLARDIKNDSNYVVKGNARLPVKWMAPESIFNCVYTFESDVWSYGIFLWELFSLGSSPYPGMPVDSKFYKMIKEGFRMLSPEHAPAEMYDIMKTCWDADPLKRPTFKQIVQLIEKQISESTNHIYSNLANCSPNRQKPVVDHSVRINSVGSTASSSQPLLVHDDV
- Experiment Notes: HTRF biochemical assay, wtKIT (phosphorylation of a peptide substrate)
- Condition Summary: Table 4
IC50 values, listed per item
Measure Name: IC50

Compound: Cc1ccc(-c2noc(C3CC3F)n2)cc1NC(=O)c1cnc2cc(COC3CC(O)C3)ccn12 (centres unmarked) [Compound I-85]
Reported Result: ≤ 50 nM

Compound: Cc1ccc(-c2ncon2)cc1NC(=O)c1cnc2cc(N3CCCCC3)ccn12 [Compound I-712]
Reported Result: 50 to 500 nM

Compound: Cc1ccc(-c2noc(C(O)C3CC3)n2)cc1NC(=O)c1cnc2ccccn12 (racemic) [Compound I-78]
Reported Result: ≤ 50 nM

Compound: Cc1ccn2c(C(=O)Nc3cc(-c4noc(CCC(C)(O)C(F)(F)F)n4)ccc3C)cnc2c1 (single isomer, unassigned) [Compound I-516]
Reported Result: ≤ 50 nM

Compound: Cc1ccc(-c2noc([C@H]3CC(F)(F)CN3)n2)cc1NC(=O)c1cnc2ccccn12 [Compound I-359]
Reported Result: 50 to 500 nM

Compound: Cc1ccc(-c2noc(CC3COC3)n2)cc1NC(=O)c1cnc2cc(COCC3(O)CC3)ccn12 [Compound I-637]
Reported Result: 50 to 500 nM

Compound: Cc1ccc(-c2noc(C3CC(O)C3)n2)cc1NC(=O)c1cnn2cc(-c3ccn(C)n3)ccc12 (centres unmarked) [Compound I-652]
Reported Result: ≤ 50 nM

Compound: Cc1nc(-c2ccc(F)c(NC(=O)c3cnn4cc(-c5ccn(C)n5)ccc34)c2)no1 [Compound I-657]
Reported Result: ≤ 50 nM

----------
- System Tested: BCRP (BCRP-MDCKII monolayer) (Homo sapiens, UniProt Q9UNQ0)
- Construct: host or cells: MDCKII (canine kidney) cells
- Sequence (Q9UNQ0 1-655): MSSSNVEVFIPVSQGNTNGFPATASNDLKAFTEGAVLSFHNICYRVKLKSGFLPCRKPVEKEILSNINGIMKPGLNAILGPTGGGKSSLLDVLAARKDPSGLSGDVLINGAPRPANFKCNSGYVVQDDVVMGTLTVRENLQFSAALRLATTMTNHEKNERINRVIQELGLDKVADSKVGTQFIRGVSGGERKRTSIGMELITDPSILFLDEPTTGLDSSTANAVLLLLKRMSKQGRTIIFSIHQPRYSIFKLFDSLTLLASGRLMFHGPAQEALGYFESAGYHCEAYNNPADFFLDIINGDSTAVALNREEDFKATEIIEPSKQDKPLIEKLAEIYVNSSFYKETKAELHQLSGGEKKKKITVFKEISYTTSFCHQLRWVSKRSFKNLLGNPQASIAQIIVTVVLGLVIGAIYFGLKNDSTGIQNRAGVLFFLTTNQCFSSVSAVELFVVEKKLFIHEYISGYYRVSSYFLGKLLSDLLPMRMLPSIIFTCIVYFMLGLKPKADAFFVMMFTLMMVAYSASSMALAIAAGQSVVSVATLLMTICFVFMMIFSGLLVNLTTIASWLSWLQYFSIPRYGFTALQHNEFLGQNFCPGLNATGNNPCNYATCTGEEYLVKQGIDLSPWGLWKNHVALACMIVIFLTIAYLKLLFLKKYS
- Experiment Notes: MDCKII-BCRP bidirectional transport assay
- Type: in vitro ADME
- Condition Summary: apical to basolateral
Measure Name: MDCK-BCRP: Papp A-B

Compound: Cc1nc(-c2ccc(Cl)c(NC(=O)c3cnc4ccccn34)c2)no1 [Compound I-172]
Measure Name: MDCK-BCRP: Papp A-B
Reported Result: 6.02 10^−6 cm/s

Compound: Cc1cc(C)cc(Nc2ccc3ncc(C(=O)Nc4cc(-c5noc([C@H]6C[C@@H]6F)n5)ccc4C)n3c2)c1 [Compound I-299]
Measure Name: MDCK-BCRP: Papp A-B
Reported Result: 0.01 10^−6 cm/s

Compound: COC(=O)Cc1nc(-c2ccc(C)c(NC(=O)c3cnc4ccccn34)c2)no1 [Compound I-321]
Measure Name: MDCK-BCRP: Papp A-B
Reported Result: 4.73 10^−6 cm/s

Compound: Cc1ccc(-c2noc(C3CCN3C(=O)OC(C)(C)C)n2)cc1NC(=O)c1cnc2ccccn12 (racemic) [Compound I-395]
Measure Name: MDCK-BCRP: Papp A-B
Reported Result: 19 10^−6 cm/s

Compound: Cc1ccc(-c2noc(C3CC4(CCC4)C3)n2)cc1NC(=O)c1cnc2ccccn12 [Compound I-367]
Measure Name: MDCK-BCRP: Papp A-B
Reported Result: 0.83 10^−6 cm/s

Compound: COC1(OC)CC(c2nc(-c3ccc(C)c(NC(=O)c4cnc5ccccn45)c3)no2)C1 [Compound I-346]
Measure Name: MDCK-BCRP: Papp A-B
Reported Result: 40.1 10^−6 cm/s

Compound: Cc1ccc(-c2noc([C@H]3C[C@@H]3F)n2)cc1NC(=O)c1cnc2cc(Br)ccn12 [Compound I-383]
Measure Name: MDCK-BCRP: Papp A-B
Reported Result: 7.55 10^−6 cm/s

Compound: Cc1ccc(-c2noc(CC(O)C(F)F)n2)cc1NC(=O)c1cnc2ccccn12 (centres unmarked) [Compound I-114]
Measure Name: MDCK-BCRP: Papp A-B
Reported Result: 3.03 10^−6 cm/s

----------
- Experiment Notes: Caco-2 permeability assay
- Format: in vitro ADME
- Condition Summary: human, Caco-2, pH 7.4

Compound Structure: Cc1ccc(-c2noc([C@H]3C[C@@H]3F)n2)cc1NC(=O)c1cnc2cc(COCC(C)(C)O)ccn12
efflux ratio at 2 h, 2 μM: 6.78

----------
pIC50 values, listed per item
- System Tested: PDGFRα (Homo sapiens, UniProt P16234)
- Construct: purchased Millipore 14-467 (lot 26321_ACTI)
- Sequence (P16234 24-1089): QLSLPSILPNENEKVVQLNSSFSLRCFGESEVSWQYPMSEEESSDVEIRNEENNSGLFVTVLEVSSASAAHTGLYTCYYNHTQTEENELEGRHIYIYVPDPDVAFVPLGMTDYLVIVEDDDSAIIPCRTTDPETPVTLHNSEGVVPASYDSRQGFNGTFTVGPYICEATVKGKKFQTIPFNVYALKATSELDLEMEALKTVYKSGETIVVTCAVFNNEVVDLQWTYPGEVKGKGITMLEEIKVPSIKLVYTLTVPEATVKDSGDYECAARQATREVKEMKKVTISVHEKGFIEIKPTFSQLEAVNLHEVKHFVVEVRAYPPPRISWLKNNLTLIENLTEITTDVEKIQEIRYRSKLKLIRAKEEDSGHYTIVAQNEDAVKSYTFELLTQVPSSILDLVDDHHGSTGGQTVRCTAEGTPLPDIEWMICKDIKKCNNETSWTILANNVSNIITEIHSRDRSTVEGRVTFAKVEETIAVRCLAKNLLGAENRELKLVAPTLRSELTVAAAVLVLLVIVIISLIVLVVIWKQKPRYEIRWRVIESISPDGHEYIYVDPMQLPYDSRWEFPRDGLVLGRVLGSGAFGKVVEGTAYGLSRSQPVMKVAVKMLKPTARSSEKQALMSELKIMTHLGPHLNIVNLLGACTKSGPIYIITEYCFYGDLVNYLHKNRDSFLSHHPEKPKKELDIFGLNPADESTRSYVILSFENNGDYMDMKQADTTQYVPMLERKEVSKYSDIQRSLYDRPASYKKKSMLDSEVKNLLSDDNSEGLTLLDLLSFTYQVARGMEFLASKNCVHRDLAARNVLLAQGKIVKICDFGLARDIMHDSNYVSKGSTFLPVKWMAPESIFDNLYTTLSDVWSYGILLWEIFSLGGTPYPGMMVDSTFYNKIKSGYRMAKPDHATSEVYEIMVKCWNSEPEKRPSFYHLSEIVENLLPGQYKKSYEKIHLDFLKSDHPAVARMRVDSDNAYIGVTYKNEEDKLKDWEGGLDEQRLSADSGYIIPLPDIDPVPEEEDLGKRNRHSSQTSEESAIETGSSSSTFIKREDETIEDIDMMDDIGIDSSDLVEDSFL
- Experiment Notes: Caliper biochemical assay, PDGFRα
- Condition Summary: Table 6
pIC50: −log10 of the molar value.

Compound: Cc1ccc(-c2noc(C3CN(C(=O)CO)C3)n2)cc1NC(=O)c1cnc2ccccn12 [Compound I-287]
pIC50: 4.52 to 5.30
--
Compound: Cc1ccc(-c2noc(C3CCC3F)n2)cc1NC(=O)c1cnc2ccccn12 (racemic) [Compound I-377]
pIC50: 5.30 to 6.30
--
Compound: Cc1ccc(-c2noc([C@@H]3CCN3S(=O)(=O)c3cccnc3)n2)cc1NC(=O)c1cnc2ccccn12 [Compound I-185]
pIC50: 6.30 to 7.30
--
Compound: Cc1ccc(Nc2ccn3c(C(=O)Nc4cc(-c5noc([C@H]6C[C@@H]6F)n5)ccc4C)cnc3c2)cc1 [Compound I-302]
pIC50: ≥ 7.30
--
Compound: Cc1ccc(-c2noc(C(C)NS(C)(=O)=O)n2)cc1NC(=O)c1cnc2ccccn12 (single isomer, unassigned) [Compound I-237]
pIC50: 4.52 to 5.30
--
Compound: O=C(Nc1cc(-c2noc([C@H]3C[C@@H]3F)n2)ccc1Cl)c1cnc2ccccn12 [Compound I-341]
pIC50: 6.30 to 7.30
--
Compound: Cc1ccc(-c2noc([C@@H]3CCN3S(=O)(=O)C3CCOCC3)n2)cc1NC(=O)c1cnc2ccccn12 [Compound I-187]
pIC50: 6.30 to 7.30

----------
- Experiment Notes: Three time point assay for plasma, brain and testes distribution after oral dosing
- Assay type: in vivo, rat
- Condition Summary: rat, oral dosing, time point 0.5 h
- Description: Exemplary compounds were tested for distribution in plasma, brain and testes tissue following oral dosing of the compounds in rats. Procedures and results are described below. […] For PO dosing, the dose formulation was administered via oral gavage following facility SOPs. The dose volume was determined by the animals' body weight collected on the morning of dosing day. […]
Measure Name: Brain concentration (ng/g)

Compound: Cc1ccc(-c2noc(CC(O)C(F)F)n2)cc1NC(=O)c1cnc2ccccn12 (stereo not shown) [Compound I-114]
Measure Name: Brain concentration
Reported Result: 106
--
Compound: Cc1ccc(-c2noc([C@H]3C[C@@H]3F)n2)cc1NC(=O)c1cnc2cc(OC(C)C)ccn12 [Compound I-88]
Measure Name: Brain concentration
Reported Result: 722
--
Compound: Cc1ccc(-c2noc([C@H]3C[C@@H]3F)n2)cc1NC(=O)c1cnc2cc(OC(F)(F)F)ccn12 [Compound I-87]
Measure Name: Brain concentration
Reported Result: 248
--
Compound: COc1ccn2c(C(=O)Nc3cc(-c4noc(CC(O)C(F)F)n4)ccc3C)cnc2c1 (single isomer, unassigned) [Compound I-40]
Measure Name: Brain concentration
Reported Result: 63.2

----------
Caco-2: Papp A-B values, listed per item
- Test system: Caco-2 cells
- Experiment Notes: Caco-2 permeability assay
- Format: in vitro ADME
- Condition Summary: Caco-2, apical to basolateral
- Protocol: Exemplary compounds were tested for cell permeability in Caco-2, MDCKII-MDR1 and MDCKII-BCRP cell lines with efflux transporter engagement inferred from the efflux ratios determined. Procedures and results are described below. […] […] And permeation of lucifer yellow through the monolayer was measured to evaluate the cellular integrity. […]
Measure Name: Caco-2: Papp A-B

Molecule: Cc1ccc(-c2noc([C@H]3CCC(=O)N3)n2)cc1NC(=O)c1cnc2ccccn12 (racemic)
Measure Name: Caco-2: Papp A-B
Reported Result: 0.27 10^−6 cm/s

Molecule: Cc1ccc(-c2noc(C3CCC(F)C3)n2)cc1NC(=O)c1cnc2ccccn12 (racemic)
Measure Name: Caco-2: Papp A-B
Reported Result: 16 10^−6 cm/s

Molecule: Cc1ccc(-c2noc(C3COC3)n2)cc1NC(=O)c1cnc2ccccn12
Measure Name: Caco-2: Papp A-B
Reported Result: 16.6 10^−6 cm/s

Molecule: Cc1ccc(-c2noc(CC(O)C(F)F)n2)cc1NC(=O)c1cnc2ccccn12 (stereo not shown)
Measure Name: Caco-2: Papp A-B
Reported Result: 6.74 10^−6 cm/s
